Cited source: the domain aggregation screens of Martell et al. (2025)

assay: soluble fraction after stress (log2 fold change); higher = more stays soluble; pooled small domains, quantitative proteomics; conditions: stress: 50 degC
Respond with met for soluble fraction (log2) values of -0.1 and above, not met for values below.

- SEQUENCE CONTENT: "HMTLTEQQITDNYKELRKIINDTFSGLRLDKLNHMYDDLEDRMVVAPASSVEHYHNSKVGGYVEHILHVI"
  GROUP LABEL: "not met"
- SEQUENCE CONTENT: "HMAVANEAIANINMKEVKQAIHNLPEIFKNPFLLYFDGYKYHEIAEMLDEPLGTIKSRIHFARKLLKSHI"
  GROUP LABEL: "not met"
- SEQUENCE CONTENT: "HMANKLTSTNLAKQHKMGLSEMYAELMNSGYLIEKDGKYELTPLGISIGGESKPNRYKKGEFYFLWPSDIS"
  GROUP LABEL: "not met"
- SEQUENCE CONTENT: "HMRMTKQRQAVLDELTRVTDFRSAQQIFEDLHSQGHRVGLATIYRSLQGLAEDGSVDTLRSSDGESLY"
  GROUP LABEL: "met"
- SEQUENCE CONTENT: "HMQPFTELTPREREILGHLAEGQSNKVIARHLDISDGTVKLHVKAILRKLGVHSRVEAAVMAVEHGIR"
  GROUP LABEL: "not met"
- SEQUENCE CONTENT: "HMRVGADLTQRERELLALMAQGMSNQEIAKRLEIAVPTVKFHITNILDKLQVGNRTEAVIAALEHKLVP"
  GROUP LABEL: "not met"
- SEQUENCE CONTENT: "HMEPDEIVLDHRKRIENSDAIVLIAPIWNFRMPAILEGWIDKVLAPPWAFKFKKLFGNYGYPVGNLKG"
  GROUP LABEL: "met"
- SEQUENCE CONTENT: "HMTNEQLSKAKSWVQIAVYAAEKLYGAGNGDQKLVYAEEILRKHGIRLDTATLKAMIDAQIKEMEN"
  GROUP LABEL: "not met"

###

assay: soluble fraction after stress (log2 fold change); higher = more stays soluble; pooled small domains, quantitative proteomics; conditions: stress: 50 degC

- SEQUENCE CONTENT: "HMDSLQDFAYEEIKKRIQNGEYAPGTKLNTQEISDSLGISRSPVLAAINRLIALGLVEATPRKGTTVA"
  soluble fraction (log2): 0.0527
- SEQUENCE CONTENT: "HMGGLLSVIQKKAINNVKDRYSENAIKSMTKVQLHDLIKAETSRLLDPANAKETPEYQAFLEE"
  soluble fraction (log2): 0.0926
- SEQUENCE CONTENT: "HMATPYISMAGIGKSFGPVHALKSVNLTVYPGEIHALLGENGAGKSTLMKVLSGIHEPTKGTITINNIN"
  soluble fraction (log2): 0.384
- SEQUENCE CONTENT: "HMATTAGIEKYLGSGLIKGIGPIYAKKIVRKFKEDTIRIIDEEPDRLLEVEGIGQKRLEIIKQAWQQQKE"
  soluble fraction (log2): -0.391

###

test: soluble fraction after stress (log2 fold change); higher = more stays soluble; pooled small domains, quantitative proteomics; conditions: stress: 50 degC
Respond with Met for soluble fraction (log2) values of -0.2 and above, Not met for values below.

- SEQUENCE CONTENT: "HMTDLVVGLAGITLEPLRPAGKAEFNGSVVDVVSLGDYIEKSTAIQIVEIEGNRIVVHHGED"
  GROUP LABEL: "Met"
- SEQUENCE CONTENT: "HMKNTYTVVSGDTLWGIASRKLGGGSNWTKIYDANAATIESVANRRRGGRGSDHGHWIYPGTVLTI"
  GROUP LABEL: "Met"
- SEQUENCE CONTENT: "HMSRFLEGILQRRAGGKNYFVPDDGSNPIFIADRNSAGAANGDRVRIAQFARRPRSGPEGEVVEILKRAK"
  GROUP LABEL: "Met"
- SEQUENCE CONTENT: "HMDIFGREAEVEQILQEVRFGDDPHYRLSIGILPVTGHAGAGKTALVRFIFHHEVARAEFTVRMWVHV"
  GROUP LABEL: "Met"
- SEQUENCE CONTENT: "HMEDEVSSSAAYQALLEKGVSKTLARSWVIDYGEAYVLDKVDLTTSQAARGKIKSSTAGFLKAAIEEDFHN"
  GROUP LABEL: "Not met"
- SEQUENCE CONTENT: "HMESIEGMYKISLLRKQGNAYVIFEDENKEAVEHIFPEKPTALELGTKVIEMFEYKERYDGLI"
  GROUP LABEL: "Not met"
- SEQUENCE CONTENT: "HMSGEPKNERQIEVPDVTKKSIREANNILTSEGLRLRIEGTGLAVSQKPAAGTMVEPDTIITVTFQAP"
  GROUP LABEL: "Met"
- SEQUENCE CONTENT: "HMQEDKSKYLFQRGTAITVLRPAGIVRIGKERVDAVSNGSYIDRGVAVRVIEVEGTRVVVEPVPE"
  GROUP LABEL: "Met"
- SEQUENCE CONTENT: "HMNILDPTVMKNILDKNHEEFIAIYESAPLGQKTIINSMVFDKRLNGENVDANILMYLQNKTNIDYINIEP"
  GROUP LABEL: "Met"
- SEQUENCE CONTENT: "HMANPFQELTERELDVLRQVAAGKNNREIAEALFIGEKTVKTHISNILSKLHLADRTQAAVYAWQQGMM"
  GROUP LABEL: "Met"
- SEQUENCE CONTENT: "HMERFVVISKDKYANLREEASTNSKVLAKVDNSYLIYNTNTYNENKDWYSVQIERDGNYYQVGYIHKSQL"
  GROUP LABEL: "Not met"
- SEQUENCE CONTENT: "HMYTLGEESDGTVRLLELYDIIKNKNEKIFVVDELDRSLHPNLTFNFVKKYLSIENKSQLIVSTH"
  GROUP LABEL: "Met"
- SEQUENCE CONTENT: "HMNSTRAPYLLDFEEDAAIREARRAGLVPRIARQPSGEPVGRVILQSHDYDYPMKRGDTILITISSG"
  GROUP LABEL: "Not met"
- SEQUENCE CONTENT: "HMIAVSQEQIKQIIVDDPSFHDANGKFSQALLTQYLNQRRMSEDQFVEEIRDQFLFQNLQNLVQNG"
  GROUP LABEL: "Met"
- SEQUENCE CONTENT: "HMIDAAHLEKAILSLPEGARAVFVLIETEGFAHREVAELLGISEGTSKSQLNYAKKRLREILV"
  GROUP LABEL: "Not met"
- SEQUENCE CONTENT: "HMTSSKISFIDPVNGGKVSVSLENSTLEKLQNRFGVNSVVRNEAGDVELKDKAQEFVAGWFADIAYTRG"
  GROUP LABEL: "Met"
- SEQUENCE CONTENT: "HMAFDGIVLKNITNALKELINGKINKIQQSSKDNLTLSIYNQKSYNLYIDISANNYRVNLTTHSE"
  GROUP LABEL: "Met"

###

soluble fraction (log2) reference
test: soluble fraction after stress (log2 fold change); higher = more stays soluble; pooled small domains, quantitative proteomics; details: stress: 50 degC

- SEQUENCE CONTENT: "HMEGSLQEDKVKEYQDRFKEELSNDLNTANSITVLYDLIKDDTLNGTTKRYLIEDFDKILSLDLIKE"
  soluble fraction (log2): 0.0632
- SEQUENCE CONTENT: "HMVAGHLQTKKGYYYIVLNMRTDTGARKTKWIATGIPEGGKKNLKQAEELLAKTRYTYEDMVI"
  soluble fraction (log2): -0.792
- SEQUENCE CONTENT: "HMFTDAEIKQFAAAAVEVTKIQQDSTISAADKQPKMLAVVQSSGLPPEKFNQIGQAAAADPALQQRIQA"
  soluble fraction (log2): 0.156
- SEQUENCE CONTENT: "HMAQTEIIRVTKDIKKGDAITADKFEKVKVGAYNLPGNVVKNADELKGKFAAADLVRGDYILTSKLTDNP"
  soluble fraction (log2): 0.146

###

soluble fraction (log2) reference
assay: soluble fraction after stress (log2 fold change); higher = more stays soluble; pooled small domains, quantitative proteomics; conditions: stress: 50 degC
PARAMETER MEASURED: soluble fraction (log2)

- SEQUENCE CONTENT: "HMPGSGELSRRLELAIRDRTAVRVTAAAAGQERSFTLLPVAITSGRLRATDEQAGVQRTLPLSAIVAVEA"
  RESULT: -0.0911
- SEQUENCE CONTENT: "HMFESQYIGKIATAITDISAFSGRLKIYDENWEARTLGEDAPEIKKGAKVKIVRHDDLTMFVEKK"
  RESULT: -0.034
- SEQUENCE CONTENT: "HMGLASEVKTEDVLNEEKYDFEPDLIGNNNEAIYQNKQTGSYVLFDRNQNKVTKVLSAGEVLNHSKYNE"
  RESULT: -0.0697
- SEQUENCE CONTENT: "HMYKTKVDIAYDMLMERITEGVYKPGEKLVITHISKELGISDIPVREAIRRLESEGYVKILPNQGAIVYD"
  RESULT: -0.395
- SEQUENCE CONTENT: "HMVFKSAQEGLDFYSKQLNDVDATLGRIRRGEESGNGLYGSNRVKNLEEQRKKLDSFVTAYRNAVNAT"
  RESULT: 0.08
- SEQUENCE CONTENT: "HMVDKDFKPLYASLERLDSTSIIEILDSNRIDYRIDQRSGALLVDADQIHQARLSLASAGMPA"
  RESULT: -0.116
- SEQUENCE CONTENT: "HMGDLKALMPGKVTQVLVSGGQKVKVGEPVLLMESMKMEQTIVATKDGDISEILVSEGDTVEVGKIMIKI"
  RESULT: 0.163
- SEQUENCE CONTENT: "HMADLVYLRKRLQDAIAQLPEDMRTAYTLFQIARRSIREIAELTGASESLVKVRIHRAKGKLQELLEDLR"
  RESULT: -1.87
- SEQUENCE CONTENT: "HMKVTGITDDILQRLKQQKGYLMLSDKSSPDEIYAAFGVSKKVFKQAIGTLFKQRQIIIEEQGIRLAN"
  RESULT: -0.39
- SEQUENCE CONTENT: "HMELNDEELIKGIQELLTKIGYDPGEINGVLGIKTSSAISAFQQSRNKAITGEADLDLLVQLQIELRKITT"
  RESULT: -0.674
- SEQUENCE CONTENT: "HMAPMYGEFENVRLTDAQLDKLNARFPPEQVQREIEALSGYMRSKGKRYADHYATLLNWLRRDFPP"
  RESULT: -0.202
- SEQUENCE CONTENT: "HMYDEAAIRKAVMTFVTDNRDERLDLAKISAVLTSKFGNINFDELGYKRFSSFIDSFPELRRNNTFVSLR"
  RESULT: -0.312
- SEQUENCE CONTENT: "HMTTKYVAVHESKDGYWTIASKPSSKEDAEAMLGGTPKNEVGKVVTLEEAKAHKKTLGEEYLYE"
  RESULT: 0.272
- SEQUENCE CONTENT: "HMLQIGDEEFIENIVKQVIDENQKAVDDYKKGKEKVMAFLIGQVMKKTKGKVNSEIVEKTIKKL"
  RESULT: -0.262
- SEQUENCE CONTENT: "HMGVRLAPEVDRIPYGQMHPNLKKVKDLYEASYKAYVQALSSGNQALAKEKLEEFQSTKARYQRALSAYT"
  RESULT: 0.189
- SEQUENCE CONTENT: "HMQQSQLDDIKSVVGGDEGYNKLREWTQANVPDETLKAFDKILDTQDPTMIKVAVEGFAAQMRQAE"
  RESULT: -0.36
- SEQUENCE CONTENT: "HMTDEEFSRIVKYTAVRYGINLYHKKVMVEGRLSNYLAANGFKSYTEYMDRVEADYTGQEAQNLINILTT"
  RESULT: -0.258
